Sourced from the supplement of paper PMC10567573

B1: SMTNL2 (parent)
chain: AFTMAENLANCERLIEVEDMMVMG

Variants of: B1
experiment: protein stability index of a GFP-peptide fusion (GPS, HEK-293T) (PSI 1-6); higher = more stable;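 also: lentivirally expressed fusions sorted by FACS into six bins by GFP to DsRed ratio, PSI derived from sequencing read proportions per bin multiplied by bin number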
protocol conditions: c terminus: a fixed tail appended
Give measured protein stability index for each item. Keep answers brief.
One number for each entry.

Solved cases below.
AFTMAEILANCERLIEVEDMMVMG : 2.05
AFTMAENLAECERLIEVEDMMVMG : 2.01
AFTMAENLANCEFLIEVEDMMVMG : 1.8
AFTMASNLANCERLIEVEDMMVMG : 1.65

Dear colleague, could you send me protein stability index for each of the items below? Thanks.
1. AFTMAENLANCERLIEVEDMRVMG
2. TFTMAENLANCERLIEVEDMMVMG
3. AFTMAEHLANCERLIEVEDMMVMG
4. AFTMAENVANCERLIEVEDMMVMG
5. AFTMAENLANCERLIHVEDMMVMG

1: 2.23; 2: 1.81; 3: 1.92; 4: 3.14; 5: 1.97
